TESTED SYSTEM: human 5-HT1A receptors (Homo sapiens, UniProt P08908)
Construct: expressed in transfected cells; host or cells: CHO cells, stably transfected
Sequence (P08908 whole entry): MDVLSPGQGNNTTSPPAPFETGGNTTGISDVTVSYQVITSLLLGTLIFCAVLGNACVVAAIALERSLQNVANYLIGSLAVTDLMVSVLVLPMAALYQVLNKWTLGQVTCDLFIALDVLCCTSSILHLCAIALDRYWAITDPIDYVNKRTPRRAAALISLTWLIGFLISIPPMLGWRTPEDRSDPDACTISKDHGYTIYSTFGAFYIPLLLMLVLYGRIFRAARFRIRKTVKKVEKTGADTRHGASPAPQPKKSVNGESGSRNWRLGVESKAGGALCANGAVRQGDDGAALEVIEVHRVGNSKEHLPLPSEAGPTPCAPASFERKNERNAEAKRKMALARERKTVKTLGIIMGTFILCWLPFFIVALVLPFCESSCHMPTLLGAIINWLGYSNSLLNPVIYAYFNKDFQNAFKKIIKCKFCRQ
ASSAY PROCEDURE: [3H] 8-OHDPAT displacement from 5-HT1A receptor (transfected CHO cells)
Assay type: binding
CONDITION CONTEXT: percent displacement of [3H] 8-OHDPAT at 1 micromolar; CHO cells with human 5-HT1A
Under this convention, TRUE denotes 5-HT1A Receptor Affinity % @ 1 μM strictly below 50% and FALSE denotes 5-HT1A Receptor Affinity % @ 1 μM at or above 50%.

> print(dat)
                                   compound                             tested.system  assigned.class
1  O=c1[nH]c2cccc3c2n1C(CN1CC=C(c2c[nH]c4ccc(Cl)cc24)CC1)CO3 (stereo not drawn)  human 5-HT1A receptors (Homo sapiens, UniProt P08908)           FALSE
2  O=c1[nH]c2cccc3c2n1C(CN1CC=C(c2c[nH]c4c(F)cccc24)CC1)CO3 (stereo not drawn)  human 5-HT1A receptors (Homo sapiens, UniProt P08908)            TRUE
3  O=c1[nH]c2cccc3c2n1C(CN1CC=C(c2c[nH]c4ccc(F)cc24)CC1)CO3 (stereo not drawn)  human 5-HT1A receptors (Homo sapiens, UniProt P08908)            TRUE
4  O=c1[nH]c2cccc3c2n1C(CN1CC=C(c2c[nH]c4ccccc24)CC1)CO3 (stereo not drawn)  human 5-HT1A receptors (Homo sapiens, UniProt P08908)           FALSE
5  Cc1nc2cccc3c2n1C(CN1CC=C(c2c[nH]c4ccccc24)CC1)CO3 (stereo not drawn)  human 5-HT1A receptors (Homo sapiens, UniProt P08908)            TRUE
